Value source: ChEMBL document CHEMBL5523766

The following compounds each carry a recorded IC50 for Serine/threonine-protein kinase mTOR (Homo sapiens, UniProt P42345).
Write the number in nM without appending the unit.

Q: So what does the record say about IC50 for C[C@@H]1COCCN1c1nc(-c2cncc3[nH]ccc23)nc2c1ccn2S(C)(=O)=O ?
A: 22.4

Q: // same read-out, input: C[C@@H]1COCCN1c1nc(-c2ccnc3[nH]ccc23)nc2c1ccn2S(C)(=O)=O
A: 45.8

----------
experiment: Half life in BALB/c mouse at 75 mg/kg,po measured upto 24 hrs by LC-MS/MS analysis; assay type: ADME, organism-based; settings: in vivo
measuredEndpoint: half-life

Q: Need half-life of C[C@@H]1COCCN1c1cc(C2([S@](C)(=N)=O)CC2)nc(-c2cc[nH]c3nccc2-3)n1 , thanks.
A: 1.93 h

----------
biological target: ATR/ATRIP (Homo sapiens); assay: Inhibition of ATR/ATRIP (unknown origin) using 5-FAM-AK-17 as substrate preincubated with compound for 10 mins followed by ATP addition and measured after 240 mins by mobility shift assay
measuredEndpoint: IC50 (nM)
Lab book: enter the figure in nM, no units written.

Q: Entry CC(C)S(=O)(=O)n1ccc2c(N3CCOC[C@H]3C)nc(-c3cccc4[nH]ccc34)nc21 has what IC50?
A: 8

Q: And for C[C@@H]1COCCN1c1nc(-c2ccnc3cccnc23)nc2c1ccn2S(C)(=O)=O ?
A: 3690

Q: Next up: C[C@@H]1COCCN1c1nc(-c2cc(C(F)(F)F)cc3[nH]ccc23)nc2c1ccn2S(C)(=O)=O
A: 9.2

Q: Please give the result for C[C@@H]1COCCN1c1nc(-c2ccc3nccn3c2)nc2c1ccn2S(C)(=O)=O too.
A: 625

Q: Try this compound next: C[C@@H]1COCCN1c1nc(-c2cccc3occc23)nc2c1ccn2S(C)(=O)=O
A: 684

Q: Cool, now CC(C)N(c1cc(N2CCOC[C@H]2C)nc(-c2cccc3[nH]ccc23)n1)S(C)(=O)=O
A: 7.8

Q: Also C[C@@H]1COCCN1c1nc(-c2cccc3[nH]ccc23)nc2c1ccn2S(C)(=O)=O ?
A: 2.3

Q: Consider next the compound C[C@@H]1COCCN1c1nc(-c2cccc3[nH]ccc23)nc2c1ccn2S(=O)(=O)c1ccc(-c2ccccc2)cc1 in the same way.
A: 10200

Q: Continue with C[C@@H]1COCCN1c1nc(-c2cc(C#N)cc3[nH]ccc23)nc2c1ccn2S(C)(=O)=O
A: 9.4

Q: Same for C[C@@H]1COCCN1c1nc(-c2ccnc3[nH]ccc23)nc2c1ccn2S(C)(=O)=O
A: 1.6

----------
Assignment: determine reported pIC50 for the given compounds.
target: AMPK alpha2/beta1/gamma1 (Homo sapiens, UniProt P54619+P54646+Q9Y478); assay: Inhibition of human AMPK alpha2/beta1/gamma1
Sequence (P54646 whole entry): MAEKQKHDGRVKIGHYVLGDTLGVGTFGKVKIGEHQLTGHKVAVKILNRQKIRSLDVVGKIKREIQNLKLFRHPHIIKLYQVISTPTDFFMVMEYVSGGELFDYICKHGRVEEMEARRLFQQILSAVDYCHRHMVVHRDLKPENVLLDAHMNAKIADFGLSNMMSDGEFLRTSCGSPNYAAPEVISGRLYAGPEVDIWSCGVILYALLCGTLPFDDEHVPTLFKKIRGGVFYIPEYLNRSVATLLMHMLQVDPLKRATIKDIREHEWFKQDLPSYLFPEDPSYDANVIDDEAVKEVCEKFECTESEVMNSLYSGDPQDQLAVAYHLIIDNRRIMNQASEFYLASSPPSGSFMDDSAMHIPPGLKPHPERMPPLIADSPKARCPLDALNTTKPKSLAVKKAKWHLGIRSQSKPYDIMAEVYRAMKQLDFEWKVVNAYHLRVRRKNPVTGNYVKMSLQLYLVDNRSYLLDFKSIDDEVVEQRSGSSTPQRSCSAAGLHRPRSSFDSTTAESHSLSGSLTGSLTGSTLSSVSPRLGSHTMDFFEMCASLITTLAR
Sequence (P54619 whole entry): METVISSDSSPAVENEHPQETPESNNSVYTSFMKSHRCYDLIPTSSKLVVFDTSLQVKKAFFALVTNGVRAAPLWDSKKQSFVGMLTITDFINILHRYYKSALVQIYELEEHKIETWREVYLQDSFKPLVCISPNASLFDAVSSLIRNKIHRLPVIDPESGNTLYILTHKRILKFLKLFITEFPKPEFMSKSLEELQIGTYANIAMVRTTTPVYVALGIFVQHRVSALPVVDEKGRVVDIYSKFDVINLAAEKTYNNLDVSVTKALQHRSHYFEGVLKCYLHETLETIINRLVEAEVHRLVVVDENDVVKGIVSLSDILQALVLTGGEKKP
Sequence (Q9Y478 whole entry): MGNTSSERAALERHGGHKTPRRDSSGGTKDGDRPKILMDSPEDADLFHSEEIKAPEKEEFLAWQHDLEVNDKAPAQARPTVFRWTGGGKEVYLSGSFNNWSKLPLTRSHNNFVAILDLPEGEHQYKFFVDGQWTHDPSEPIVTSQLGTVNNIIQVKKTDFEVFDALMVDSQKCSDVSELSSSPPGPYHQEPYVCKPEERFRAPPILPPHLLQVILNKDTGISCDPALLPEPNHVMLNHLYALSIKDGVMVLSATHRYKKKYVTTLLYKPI
pIC50: −log10 of the molar value.

Q: For the record C[C@@H]1COCCN1c1nc(-c2cncc3[nH]ccc23)nc2c1ccn2S(C)(=O)=O , what value of pIC50 is listed for AMPK alpha2/beta1/gamma1 (Homo sapiens, UniProt P54619+P54646+Q9Y478)?
A: < 5.00

Q: Lookup C[C@@H]1COCCN1c1nc(-c2ccnc3[nH]ccc23)nc2c1ccn2S(C)(=O)=O
A: < 5.00

----------
target: ATR/ATRIP (Homo sapiens, UniProt Q13535); test: Inhibition of ATR/ATRIP (unknown origin) using 5-FAM-AK-17 as substrate preincubated with compound for 10 mins followed by ATP addition and measured after 240 mins by mobility shift assay
Sequence (Q13535 whole entry): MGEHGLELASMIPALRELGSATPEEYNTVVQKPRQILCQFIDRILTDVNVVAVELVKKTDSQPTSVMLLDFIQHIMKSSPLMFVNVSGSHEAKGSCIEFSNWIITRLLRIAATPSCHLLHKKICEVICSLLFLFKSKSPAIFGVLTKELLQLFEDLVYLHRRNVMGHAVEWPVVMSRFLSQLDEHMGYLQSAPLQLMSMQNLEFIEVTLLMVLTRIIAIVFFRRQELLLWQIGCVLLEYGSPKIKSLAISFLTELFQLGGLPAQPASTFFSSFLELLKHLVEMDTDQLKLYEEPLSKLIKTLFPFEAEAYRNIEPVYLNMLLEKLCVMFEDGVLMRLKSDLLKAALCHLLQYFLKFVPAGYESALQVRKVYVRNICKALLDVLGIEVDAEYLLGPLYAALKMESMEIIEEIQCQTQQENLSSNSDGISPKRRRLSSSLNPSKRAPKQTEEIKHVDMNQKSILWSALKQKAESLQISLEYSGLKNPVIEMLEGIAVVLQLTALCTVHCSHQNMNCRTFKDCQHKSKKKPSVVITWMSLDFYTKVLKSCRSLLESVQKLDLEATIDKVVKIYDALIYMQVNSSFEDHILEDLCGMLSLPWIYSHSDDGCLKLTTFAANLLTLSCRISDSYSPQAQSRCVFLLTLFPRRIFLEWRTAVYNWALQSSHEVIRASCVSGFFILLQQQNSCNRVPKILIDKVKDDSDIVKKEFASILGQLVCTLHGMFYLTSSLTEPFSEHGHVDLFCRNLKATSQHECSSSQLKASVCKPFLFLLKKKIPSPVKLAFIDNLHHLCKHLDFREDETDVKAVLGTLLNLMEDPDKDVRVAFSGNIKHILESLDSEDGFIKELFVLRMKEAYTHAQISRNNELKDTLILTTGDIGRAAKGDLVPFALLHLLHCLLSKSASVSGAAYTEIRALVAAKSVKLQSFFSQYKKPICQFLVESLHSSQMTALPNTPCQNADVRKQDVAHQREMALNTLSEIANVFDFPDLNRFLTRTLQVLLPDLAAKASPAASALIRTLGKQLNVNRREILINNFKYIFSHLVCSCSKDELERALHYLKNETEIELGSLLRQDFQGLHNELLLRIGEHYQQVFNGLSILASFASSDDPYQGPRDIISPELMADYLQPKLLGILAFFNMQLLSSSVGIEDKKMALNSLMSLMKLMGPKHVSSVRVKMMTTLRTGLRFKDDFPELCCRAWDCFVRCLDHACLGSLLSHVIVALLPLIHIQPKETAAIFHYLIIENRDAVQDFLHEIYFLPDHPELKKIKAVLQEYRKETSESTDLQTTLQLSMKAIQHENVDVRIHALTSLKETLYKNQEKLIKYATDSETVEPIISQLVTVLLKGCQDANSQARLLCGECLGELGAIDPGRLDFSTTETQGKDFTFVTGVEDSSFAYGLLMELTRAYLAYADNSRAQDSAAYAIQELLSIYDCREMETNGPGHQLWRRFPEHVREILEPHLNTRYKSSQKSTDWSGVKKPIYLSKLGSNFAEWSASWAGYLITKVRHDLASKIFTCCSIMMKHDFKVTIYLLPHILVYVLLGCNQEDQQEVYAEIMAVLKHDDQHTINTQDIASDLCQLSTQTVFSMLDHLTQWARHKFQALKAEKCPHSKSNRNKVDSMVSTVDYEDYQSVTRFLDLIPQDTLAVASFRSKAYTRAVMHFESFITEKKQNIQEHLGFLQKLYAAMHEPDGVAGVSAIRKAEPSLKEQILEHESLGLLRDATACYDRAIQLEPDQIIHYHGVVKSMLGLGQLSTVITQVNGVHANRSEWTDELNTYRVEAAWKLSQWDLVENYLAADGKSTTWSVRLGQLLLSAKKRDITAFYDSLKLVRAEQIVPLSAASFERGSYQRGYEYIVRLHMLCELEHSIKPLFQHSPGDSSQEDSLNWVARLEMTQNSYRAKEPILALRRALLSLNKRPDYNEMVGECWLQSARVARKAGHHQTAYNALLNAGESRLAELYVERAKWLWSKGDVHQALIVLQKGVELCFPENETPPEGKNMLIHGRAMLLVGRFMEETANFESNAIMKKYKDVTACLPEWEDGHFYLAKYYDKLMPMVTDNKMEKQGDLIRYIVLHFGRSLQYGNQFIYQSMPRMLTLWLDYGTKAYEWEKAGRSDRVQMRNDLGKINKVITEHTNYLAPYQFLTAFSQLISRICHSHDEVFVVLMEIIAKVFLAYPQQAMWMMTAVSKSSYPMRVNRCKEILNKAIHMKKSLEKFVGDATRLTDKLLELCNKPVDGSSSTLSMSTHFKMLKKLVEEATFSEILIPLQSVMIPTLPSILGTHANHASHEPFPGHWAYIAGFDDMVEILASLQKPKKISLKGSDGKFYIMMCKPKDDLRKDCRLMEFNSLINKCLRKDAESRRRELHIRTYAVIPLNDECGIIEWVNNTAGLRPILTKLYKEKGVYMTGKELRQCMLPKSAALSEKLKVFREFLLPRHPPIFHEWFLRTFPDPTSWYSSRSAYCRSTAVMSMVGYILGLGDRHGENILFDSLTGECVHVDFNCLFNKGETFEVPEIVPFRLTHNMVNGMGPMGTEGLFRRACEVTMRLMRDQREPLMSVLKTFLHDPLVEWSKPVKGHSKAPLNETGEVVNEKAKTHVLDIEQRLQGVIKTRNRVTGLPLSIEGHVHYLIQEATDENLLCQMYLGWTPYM
Sequence (Q8WXE1 whole entry, further chain): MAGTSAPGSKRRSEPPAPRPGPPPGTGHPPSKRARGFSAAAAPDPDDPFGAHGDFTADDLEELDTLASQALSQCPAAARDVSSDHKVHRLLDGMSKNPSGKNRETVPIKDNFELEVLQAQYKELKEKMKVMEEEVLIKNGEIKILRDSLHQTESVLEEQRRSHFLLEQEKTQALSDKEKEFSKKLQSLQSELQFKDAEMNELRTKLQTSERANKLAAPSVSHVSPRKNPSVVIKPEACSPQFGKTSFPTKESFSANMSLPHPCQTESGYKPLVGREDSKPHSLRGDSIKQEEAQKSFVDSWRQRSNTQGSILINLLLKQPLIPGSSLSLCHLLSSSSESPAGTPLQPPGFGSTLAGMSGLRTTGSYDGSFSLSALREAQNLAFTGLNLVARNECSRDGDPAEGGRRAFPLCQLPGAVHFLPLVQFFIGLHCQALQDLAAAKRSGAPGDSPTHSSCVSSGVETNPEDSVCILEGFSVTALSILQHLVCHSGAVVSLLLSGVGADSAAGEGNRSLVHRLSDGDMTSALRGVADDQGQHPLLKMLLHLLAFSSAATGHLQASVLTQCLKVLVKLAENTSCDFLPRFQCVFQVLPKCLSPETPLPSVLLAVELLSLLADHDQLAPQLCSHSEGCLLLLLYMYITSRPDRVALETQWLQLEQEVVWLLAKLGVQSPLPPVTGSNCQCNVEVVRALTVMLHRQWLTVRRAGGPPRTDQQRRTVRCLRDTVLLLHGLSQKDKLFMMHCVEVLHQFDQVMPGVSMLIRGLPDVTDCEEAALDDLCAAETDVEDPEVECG
Label key: t means IC50 under 3 nM; f means IC50 of 3 nM or more.

Q: Answer whether the molecule C[C@@H]1COCCN1c1cc(N(C2CC2)S(C)(=O)=O)nc(-c2cccc3[nH]ccc23)n1 has IC50 strictly less than 3 nM
A: f

Q: C[C@@H]1COCCN1c1nc(-c2cncc3[nH]ccc23)nc2c1ccn2S(C)(=O)=O , same question.
A: t

Q: How about C[C@@H]1COCCN1c1nc(-c2cccc3[nH]ccc23)nc2c1ccn2S(=O)(=O)C1CC1 ?
A: f

Q: Next record, please: C[C@@H]1COCCN1c1nc(-c2cnc3ccccc3c2)nc2c1ccn2S(C)(=O)=O
A: f

Q: Subsequent entry: C[C@@H]1COCCN1c1cc(C2CCCS2(=O)=O)nc(-c2cccc3[nH]ccc23)n1 (stereo not given in full)
A: f
